Measured values drawn from ChEMBL document CHEMBL4480406 for this set.

Target or system Somatostatin receptor type 2 (Homo sapiens, UniProt P30874); recorded quantity Ki.
PROPERTY MEASURED: Ki

1) COc1cc2cc(c1Cl)N(C)C(=O)C[C@H](OC(=O)[C@H](C)N(C)C(=O)CCSSCCCN[C@H](Cc1ccccc1)C(=O)N[C@H]1CSSC[C@@H](C(=O)N[C@@H](Cc3c[nH]c4ccccc34)C(N)=O)NC(=O)[C@H](C(C)C)NC(=O)[C@H](CCCCN)NC(=O)[C@@H](Cc3c[nH]c4ccccc34)NC(=O)[C@H](Cc3ccc(O)cc3)NC1=O)[C@@]1(C)O[C@H]1[C@H](C)[C@@H]1C[C@@](O)(NC(=O)O1)[C@H](OC)/C=C/C=C(\C)C2 : 0.19 nM
2) COc1cc2cc(c1Cl)N(C)C(=O)C[C@H](OC(=O)[C@H](C)N(C)C(=O)CCSSCCCN[C@H](Cc1ccccc1)C(=O)N[C@H]1CSSC[C@@H](C(=O)N[C@H](CO)[C@@H](C)O)NC(=O)[C@H]([C@@H](C)O)NC(=O)[C@H](CCCCN)NC(=O)[C@@H](Cc3c[nH]c4ccccc34)NC(=O)[C@H](Cc3ccccc3)NC1=O)[C@@]1(C)O[C@H]1[C@H](C)[C@@H]1C[C@@](O)(NC(=O)O1)[C@H](OC)/C=C/C=C(\C)C2 : 0.12 nM

----------
# TEST NAME: Half life of the compound in phosphate buffer at 1 mM in presence of GSH by LC-MS/MS analysis
# Format: physicochemical
# TEST CONDITIONS: phosphate buffer with GSH
PROPERTY MEASURED: half-life at 1000 µM (min)

1. COc1cc2cc(c1Cl)N(C)C(=O)C[C@H](OC(=O)[C@H](C)N(C)C(=O)CCSSC(C)(C)[C@H](NC(=O)[C@@H]1CSSC[C@H](NC(=O)[C@H](N)Cc3ccccc3)C(=O)N[C@@H](Cc3ccc(O)cc3)C(=O)N[C@H](Cc3c[nH]c4ccccc34)C(=O)N[C@@H](CCCCN)C(=O)N[C@@H]([C@@H](C)O)C(=O)N1)C(N)=O)[C@@]1(C)O[C@H]1[C@H](C)[C@@H]1C[C@@](O)(NC(=O)O1)[C@H](OC)/C=C/C=C(\C)C2 : 56.8
2. COc1cc2cc(c1Cl)N(C)C(=O)C[C@H](OC(=O)[C@H](C)N(C)C(=O)CCSSC[C@H](NC(=O)[C@@H]1CSSC[C@H](NC(=O)[C@H](N)Cc3ccccc3)C(=O)N[C@@H](Cc3ccc(O)cc3)C(=O)N[C@H](Cc3c[nH]c4ccccc34)C(=O)N[C@@H](CCCCN)C(=O)N[C@@H]([C@@H](C)O)C(=O)N1)C(N)=O)[C@@]1(C)O[C@H]1[C@H](C)[C@@H]1C[C@@](O)(NC(=O)O1)[C@H](OC)/C=C/C=C(\C)C2 : 10

----------
# TESTED SYSTEM: Somatostatin receptor type 2 (Homo sapiens, UniProt P30874)
# Sequence (P30874 whole entry): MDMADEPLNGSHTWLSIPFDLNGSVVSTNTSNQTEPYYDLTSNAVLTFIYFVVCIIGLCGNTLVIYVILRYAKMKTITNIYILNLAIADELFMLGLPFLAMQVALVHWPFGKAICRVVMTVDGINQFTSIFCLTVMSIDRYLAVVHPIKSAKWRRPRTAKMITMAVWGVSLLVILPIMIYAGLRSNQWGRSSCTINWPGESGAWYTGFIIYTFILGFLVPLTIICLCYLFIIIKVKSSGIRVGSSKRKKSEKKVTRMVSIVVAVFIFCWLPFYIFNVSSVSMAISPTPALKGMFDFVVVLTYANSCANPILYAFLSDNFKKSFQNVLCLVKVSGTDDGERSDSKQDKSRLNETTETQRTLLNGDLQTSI
Below is a list of entries, each paired with its recorded Ki value.
PROPERTY MEASURED: Ki (nM)

1) COc1cc2cc(c1Cl)N(C)C(=O)C[C@H](OC(=O)[C@H](C)N(C)C(=O)CCSSCCC(=O)NCCCC[C@H]1C(=O)N[C@@H](Cc3ccc(O)cc3)C(=O)N[C@H](Cc3c[nH]c4ccccc34)C(=O)N[C@@H](CCCCN)C(=O)N[C@@H]([C@@H](C)O)C(=O)N[C@@H](Cc3ccccc3)C(=O)N1C)[C@@]1(C)O[C@H]1[C@H](C)[C@@H]1C[C@@](O)(NC(=O)O1)[C@H](OC)/C=C/C=C(\C)C2 : 0.1
2) COc1cc2cc(c1Cl)N(C)C(=O)C[C@H](OC(=O)[C@H](C)N(C)C(=O)CCSSC[C@H](NC(=O)[C@@H]1CSSC[C@H](NC(=O)[C@H](N)Cc3ccccc3)C(=O)N[C@@H](Cc3ccc(O)cc3)C(=O)N[C@H](Cc3c[nH]c4ccccc34)C(=O)N[C@@H](CCCCN)C(=O)N[C@@H]([C@@H](C)O)C(=O)N1)C(N)=O)[C@@]1(C)O[C@H]1[C@H](C)[C@@H]1C[C@@](O)(NC(=O)O1)[C@H](OC)/C=C/C=C(\C)C2 : 0.022
3) COc1cc2cc(c1Cl)N(C)C(=O)C[C@H](OC(=O)[C@H](C)N(C)C(=O)CCSSC[C@H](NC(=O)[C@@H]1CSSC[C@H](NC(=O)[C@H](N)Cc3ccccc3)C(=O)N[C@@H](Cc3ccc(O)cc3)C(=O)N[C@H](Cc3c[nH]c4ccccc34)C(=O)N[C@@H](CCCCNC(=O)NCCCCCCN)C(=O)N[C@@H]([C@@H](C)O)C(=O)N1)C(N)=O)[C@@]1(C)O[C@H]1[C@H](C)[C@@H]1C[C@@](O)(NC(=O)O1)[C@H](OC)/C=C/C=C(\C)C2 : 3350
4) CC[C@H](C)[C@@H]([C@@H](CC(=O)N1CCC[C@H]1[C@H](OC)[C@@H](C)C(=O)N[C@H](C)[C@@H](O)c1ccccc1)OC)N(C)C(=O)[C@@H](NC(=O)[C@H](C(C)C)N(C)C(=O)OCCSSC[C@H](NC(=O)[C@@H]1CSSC[C@H](NC(=O)[C@H](N)Cc2ccccc2)C(=O)N[C@@H](Cc2ccc(O)cc2)C(=O)N[C@H](Cc2c[nH]c3ccccc23)C(=O)N[C@@H](CCCCN)C(=O)N[C@@H]([C@@H](C)O)C(=O)N1)C(N)=O)C(C)C : 0.18
